The origin of these recorded values is patent US20220064276A1.

- systemUnderTest: T1, human LTBP1-proTGFβ1 complex (human, UniProt Q14766 347-1721; P01137 30-390)
- T1 construct: Large latent complex: one presenting molecule disulfide-linked to a proTGFβ1 dimer; also called Hu LTBP1-proTGFβ1; huLTBP1 proTGFβ1
- T1 sequence (Q14766 347-1721 limits assumed, chain 1 of 2): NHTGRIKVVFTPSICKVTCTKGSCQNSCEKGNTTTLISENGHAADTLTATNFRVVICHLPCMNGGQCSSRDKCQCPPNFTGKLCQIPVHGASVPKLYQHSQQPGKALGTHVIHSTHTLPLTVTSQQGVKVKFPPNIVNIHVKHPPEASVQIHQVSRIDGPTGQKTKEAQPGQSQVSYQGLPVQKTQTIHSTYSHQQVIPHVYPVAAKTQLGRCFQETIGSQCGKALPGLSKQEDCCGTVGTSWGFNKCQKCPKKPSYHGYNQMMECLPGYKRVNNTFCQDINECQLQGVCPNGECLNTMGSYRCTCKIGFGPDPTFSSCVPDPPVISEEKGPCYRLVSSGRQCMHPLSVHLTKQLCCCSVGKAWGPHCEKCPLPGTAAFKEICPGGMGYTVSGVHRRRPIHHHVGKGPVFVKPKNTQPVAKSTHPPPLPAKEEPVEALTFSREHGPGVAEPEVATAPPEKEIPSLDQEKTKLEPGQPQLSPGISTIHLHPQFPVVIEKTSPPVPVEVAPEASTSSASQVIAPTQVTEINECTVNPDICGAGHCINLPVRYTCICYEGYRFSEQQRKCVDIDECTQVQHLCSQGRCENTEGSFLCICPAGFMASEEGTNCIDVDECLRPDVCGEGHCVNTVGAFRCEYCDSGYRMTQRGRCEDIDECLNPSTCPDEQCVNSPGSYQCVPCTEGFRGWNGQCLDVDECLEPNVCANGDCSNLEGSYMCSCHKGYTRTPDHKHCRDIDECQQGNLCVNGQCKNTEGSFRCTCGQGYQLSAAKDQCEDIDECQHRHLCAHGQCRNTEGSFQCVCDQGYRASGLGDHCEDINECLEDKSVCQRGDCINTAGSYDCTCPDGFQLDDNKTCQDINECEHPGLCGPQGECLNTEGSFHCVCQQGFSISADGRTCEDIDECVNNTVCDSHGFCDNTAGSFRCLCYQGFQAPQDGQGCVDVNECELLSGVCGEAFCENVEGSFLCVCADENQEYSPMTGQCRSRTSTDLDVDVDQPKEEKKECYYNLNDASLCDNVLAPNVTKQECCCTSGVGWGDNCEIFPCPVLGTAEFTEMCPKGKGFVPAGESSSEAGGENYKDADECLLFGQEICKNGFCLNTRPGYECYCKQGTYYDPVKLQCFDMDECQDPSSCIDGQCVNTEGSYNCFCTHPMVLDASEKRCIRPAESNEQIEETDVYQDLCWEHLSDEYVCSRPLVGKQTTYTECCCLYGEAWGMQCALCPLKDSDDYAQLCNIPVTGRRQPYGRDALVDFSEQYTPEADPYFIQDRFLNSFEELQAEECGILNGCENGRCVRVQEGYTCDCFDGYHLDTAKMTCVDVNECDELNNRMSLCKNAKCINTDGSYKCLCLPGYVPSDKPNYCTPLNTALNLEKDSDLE
- T1 sequence (P01137 30-390 limits assumed, chain 2 of 2): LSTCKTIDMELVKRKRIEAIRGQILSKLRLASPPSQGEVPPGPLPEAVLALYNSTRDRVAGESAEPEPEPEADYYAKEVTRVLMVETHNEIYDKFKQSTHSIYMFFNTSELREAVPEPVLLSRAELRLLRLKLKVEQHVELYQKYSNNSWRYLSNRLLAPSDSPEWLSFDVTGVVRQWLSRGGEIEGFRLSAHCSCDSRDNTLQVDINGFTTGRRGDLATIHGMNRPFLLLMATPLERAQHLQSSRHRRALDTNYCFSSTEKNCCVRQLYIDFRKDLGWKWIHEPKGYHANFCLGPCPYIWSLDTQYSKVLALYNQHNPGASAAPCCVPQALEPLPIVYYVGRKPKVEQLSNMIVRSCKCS
- runDescription: Octet BLI, IgG captured
- Method: Binding affinities of the optimized antibodies were measured by Octet against human LTBP1-proTGFβ1, human LTBP3-proTGFβ1, mouse LTBP1-proTGFβ1, mouse LTBP3-proTGFβ1, and GARP-proTGFβ1 complexes, essentially as described in Example 6. […] The antigens were allowed to associate for 3 minutes followed by a 5-minute dissociation. Kinetics buffer (ForteBio®) was used throughout the experiment, and KD was determined using a 1:1 fitting model for each antibody antigen pair.
I'd be grateful if you could share measured Kd for these entries.
Enter your answer as a number in nM; do not include the unit.

Asked: If you can, please state the reported Kd value of SR-AB41 (antibody, IgG1, V domains shown, Cycle 3, lineage SR-AB23) VH: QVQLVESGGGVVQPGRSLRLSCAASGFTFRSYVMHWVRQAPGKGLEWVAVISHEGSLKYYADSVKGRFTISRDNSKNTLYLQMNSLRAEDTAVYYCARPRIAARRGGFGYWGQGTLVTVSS VL: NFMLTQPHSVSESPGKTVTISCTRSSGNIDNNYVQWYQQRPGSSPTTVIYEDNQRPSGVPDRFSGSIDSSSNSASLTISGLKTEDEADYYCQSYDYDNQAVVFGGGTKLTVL .
Given back: 0.296

Asked: Another binder to check: SR-AB42 (antibody, IgG1, V domains shown, Cycle 3, lineage SR-AB23) VH: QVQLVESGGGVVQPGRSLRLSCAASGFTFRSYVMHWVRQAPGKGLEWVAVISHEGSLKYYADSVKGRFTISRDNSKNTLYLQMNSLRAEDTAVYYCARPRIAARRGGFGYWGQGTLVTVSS VL: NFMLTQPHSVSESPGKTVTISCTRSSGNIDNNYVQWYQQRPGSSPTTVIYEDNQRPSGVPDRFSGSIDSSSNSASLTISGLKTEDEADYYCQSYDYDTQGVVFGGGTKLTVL
Given back: 0.389

Asked: Another binder to check: SR-AB63 (antibody, IgG1, V domains shown, Cycle 3, lineage SR-AB26) VH: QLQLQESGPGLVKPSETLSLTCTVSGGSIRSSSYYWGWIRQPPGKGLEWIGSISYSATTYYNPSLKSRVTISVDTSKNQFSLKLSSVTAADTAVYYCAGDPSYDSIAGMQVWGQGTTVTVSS VL: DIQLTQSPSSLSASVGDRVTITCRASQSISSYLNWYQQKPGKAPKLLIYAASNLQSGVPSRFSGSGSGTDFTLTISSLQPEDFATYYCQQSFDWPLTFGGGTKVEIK
Given back: 0.611

Asked: Another binder to check: SR-AB62 (antibody, IgG1, V domains shown, Cycle 3, lineage SR-AB24) VH: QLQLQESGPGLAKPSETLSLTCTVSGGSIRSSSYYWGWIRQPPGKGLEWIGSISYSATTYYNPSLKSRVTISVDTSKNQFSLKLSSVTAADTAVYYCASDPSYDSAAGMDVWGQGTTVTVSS VL: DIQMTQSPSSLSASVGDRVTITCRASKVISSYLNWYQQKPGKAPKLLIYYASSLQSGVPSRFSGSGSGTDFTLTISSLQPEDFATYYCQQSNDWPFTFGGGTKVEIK
Given back: 0.486

Asked: Another binder to check: SR-AB37 (antibody, IgG1, V domains shown, Cycle 3, lineage SR-AB22) VH: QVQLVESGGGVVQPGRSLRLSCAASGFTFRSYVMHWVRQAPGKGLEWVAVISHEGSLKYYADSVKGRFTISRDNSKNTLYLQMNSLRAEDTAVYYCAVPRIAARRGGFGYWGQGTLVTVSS VL: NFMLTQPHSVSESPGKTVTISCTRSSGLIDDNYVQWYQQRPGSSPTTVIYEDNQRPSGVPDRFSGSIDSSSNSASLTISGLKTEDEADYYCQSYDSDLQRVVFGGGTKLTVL
Given back: 0.328

Asked: Another binder to check: SR-AB34 (antibody, IgG1, V domains shown, Cycle 3, lineage SR-AB22) VH: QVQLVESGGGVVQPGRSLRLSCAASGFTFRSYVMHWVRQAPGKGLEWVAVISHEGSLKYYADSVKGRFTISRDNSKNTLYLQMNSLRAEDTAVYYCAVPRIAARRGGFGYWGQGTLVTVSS VL: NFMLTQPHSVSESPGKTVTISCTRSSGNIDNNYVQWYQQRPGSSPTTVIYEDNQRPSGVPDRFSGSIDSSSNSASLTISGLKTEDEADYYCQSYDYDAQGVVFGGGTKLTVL
Given back: 0.231

Asked: Another binder to check: SR-AB43 (antibody, IgG1, V domains shown, Cycle 3, lineage SR-AB23) VH: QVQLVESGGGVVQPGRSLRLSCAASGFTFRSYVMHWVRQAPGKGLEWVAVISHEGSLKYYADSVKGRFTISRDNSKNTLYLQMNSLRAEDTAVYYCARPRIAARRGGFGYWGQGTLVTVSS VL: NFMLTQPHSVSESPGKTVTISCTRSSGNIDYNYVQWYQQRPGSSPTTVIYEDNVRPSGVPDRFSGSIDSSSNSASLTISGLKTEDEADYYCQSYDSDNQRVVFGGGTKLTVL
Given back: 0.649

Asked: Another binder to check: SR-AB31 (antibody, IgG1, V domains shown, Cycle 3, lineage SR-AB22) VH: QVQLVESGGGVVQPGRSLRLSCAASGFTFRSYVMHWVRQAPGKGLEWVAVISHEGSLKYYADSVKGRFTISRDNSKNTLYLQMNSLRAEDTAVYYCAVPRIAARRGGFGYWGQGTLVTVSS VL: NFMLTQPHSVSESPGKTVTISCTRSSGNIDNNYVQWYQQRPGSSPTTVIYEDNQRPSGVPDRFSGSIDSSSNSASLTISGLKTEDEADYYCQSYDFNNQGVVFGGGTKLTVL
Given back: 0.412

Asked: Another binder to check: SR-AB39 (antibody, IgG1, V domains shown, Cycle 3, lineage SR-AB22) VH: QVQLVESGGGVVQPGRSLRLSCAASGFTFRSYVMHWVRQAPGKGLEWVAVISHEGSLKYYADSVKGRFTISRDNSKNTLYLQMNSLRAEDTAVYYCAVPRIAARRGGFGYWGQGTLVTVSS VL: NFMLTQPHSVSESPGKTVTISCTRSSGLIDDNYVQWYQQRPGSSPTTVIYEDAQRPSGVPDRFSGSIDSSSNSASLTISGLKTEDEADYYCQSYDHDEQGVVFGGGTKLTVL
Given back: 0.205

Asked: Another binder to check: SR-AB64 (antibody, IgG1, V domains shown, Cycle 3, lineage SR-AB26) VH: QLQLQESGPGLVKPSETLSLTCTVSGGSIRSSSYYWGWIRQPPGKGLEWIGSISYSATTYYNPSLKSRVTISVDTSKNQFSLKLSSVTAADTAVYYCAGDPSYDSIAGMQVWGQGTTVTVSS VL: DIQMTQSPSSLSASVGDRVTITCRASQSISYYLNWYQQKPGKAPKLLIYSASSRQSGVPSRFSGSGSGTDFTLTISSLQPEDFATYYCQQGFDFPLTFGGGTKVEIK
Given back: 0.467
